target: spike protein of SARS-CoV-2 (Wuhan strain) on pseudovirus (SARS-CoV-2 (Wuhan strain), UniProt P0DTC2 14-1254); assay: cell-based or functional assay
Assign IC50 of pseudovirus infection (luciferase) to each entry below.
Write the number in µg/mL without appending the unit.

Item Ab354 (antibody, V domains shown) VH: QVQLVQSGAEVKKPGASVTVSCKASGFLFTGYYMHWVRQAPGQGLEWMGWINPNSGASNYTRKFQGRVTMTRDTSISATYMKLSRLTSDDTAVYYCARDLAFSMVRGALDYWGQGTLVTVSS VL: QLVLTQPPSASGSPGQSVTISCTGTSSDVGGYNYVSWYQHHPGKAPKLMIYEVSKRPSGVPDRFSGSKSGNTASLTVSGLQAEDEADYYCNSYAGNNNWVFGTGTKVTVL has what recorded IC50 of pseudovirus infection (luciferase)? 0.0559

Item Ab847 (antibody, V domains shown) VH: EVQLVQSGAEVKKPGASVKVSCKASGYTFTSYDIIWVRQATGQGLEWMGWMDPSRGTTGYAQTFQGRVTMTRDTSISTAYLELNSLTSEDTAVYYCVAHIVVLDRWFDPWGQGTLVTVSS VL: DIVMTQSPSSLSASVGDRVTITCQASQDIGNFLNWCQQKPGQAPKVLIYGASNLETGVPSRFSGSGSGTDFTFTISSLQPEDIATYYCQHYDNFPPRFTFGQGTKLDIK has what recorded IC50 of pseudovirus infection (luciferase)? 0.0403

Item Ab830 (antibody, V domains shown) VH: QVQLVQSGAEVKKPGSSVKVSCKTSGGTFTNYTISWVRQAPGQGLEWMGRIIPIFDIVNYAQKFQGRVTITADKSTSTTYMELSSLRSEDTAVYYCARDGVLYDTSGYLYDAFDIWGQGTMVTVSS VL: DIQMTQSPSSLSASVGDRVTITCRASQGINNYLAWFQQKPGKAPKSLIYAASSLQSGVPPKFSGSGSGTDFTLTISSLQPEDFATYYCLHYNSYPWTFGQGTKVEIK has what recorded IC50 of pseudovirus infection (luciferase)? 0.0349

Item Ab765 (antibody, V domains shown) VH: QVQLVESGGGVVQPGRSLRLSCAASGFTFSDYAIHWVRQAPGRGLEPVALISYDGNNKYYADSVKGRFTISRDNSKNVLYLQMNSLRADDTAVYYCARDAEGGWVAALDYWGQGTLVTVSS VL: QSALTQPRSVSGSPGQSVTISCTGTSSDVGGYNYVSWYQHHPGKAPKVMIYEVSKRPSGVPDRFSGSKSGTTASLTISGLQAEDEADYYCCSYAGTYPYVFGTGTKVTVL has what recorded IC50 of pseudovirus infection (luciferase)? 0.005
